Quick list: INHIBITION per entry.
- Tested on: Plasmodium berghei
- measurement_protocol: Screen against P. berghei liver stage (PbLuc), transformed with Luciferase, at 10uM
- Type: functional, HepG2
- settings: tested at 10 uM
About 8,600 (12%) of roughly 69,000 compounds showed an effect of 50% or more. This is one part of a sample in which strong results are shown more often than they occur.
Write it as a number; the unit % goes unstated.

Worked examples follow.
molecule	target_system	uom	INHIBITION
CC(=O)NCC1CCN(C(=O)c2c[nH]c3cc(Cl)ccc23)CC1	Plasmodium berghei	%	35.3
CC(C)C(=O)NC1CCCc2nc(N3CCOCC3)ncc21 (centres undefined)	Plasmodium berghei	%	18.3
CCS(=O)(=O)N1Cc2ccccc2CC1C(=O)OCc1cc(C)no1 (centres undefined)	Plasmodium berghei	%	60.2

Moving on to another molecule below.
Test item Cc1occc1C(=O)N1CCC2(CC1)C(c1cnn(C)c1)CC(=O)N2C (centres undefined) ; Plasmodium berghei; reported INHIBITION was 31.3

* * *

- System: Plasmodium berghei
- measurement_protocol: Screen against P. berghei liver stage (PbLuc), transformed with Luciferase, at 10uM
- Assay type: functional, HepG2
- settings: tested at 10 uM
Screen size: about 69,000 compounds; about 8,600 (12%) showed an effect of 50% or more. The entries come from a sample that favours strong results as a whole.
Quick list: INHIBITION per entry.
Write it as a number; the unit % goes unstated.

Worked examples follow.
molecule	INHIBITION [%]
O=C(c1nn(-c2ccccc2F)cc1O)N1CCCSCC1	-21.7
CC(C)c1ncc2c(n1)CN(Cc1cccc3c1OCCO3)CC2	37.7
Cc1n[nH]c(C2CN(C(=O)c3cc4c(s3)CCC4)CCO2)n1 (stereo not given)	0.914

INHIBITION measured on CCc1n[nH]c(C2CN(C(=O)c3csnn3)CCO2)n1 (stereo not given) = 40.4

INHIBITION measured on CC(C)c1n[nH]c(C2CN(C(=O)c3cc4c(s3)CCC4)CCO2)n1 (stereo not given) = 52.3

* * *

- System: Plasmodium berghei
- measurement_protocol: Screen against P. berghei liver stage (PbLuc), transformed with Luciferase, at 10uM
- Format: functional, HepG2
- settings: tested at 10 uM
About 8,600 (12%) of roughly 69,000 compounds showed an effect of 50% or more. The sample as a whole holds a higher share of strong results than the screen did.
metric_name: INHIBITION (%)
Write it as a number; the unit % goes unstated.

Worked examples follow.
molecule	target_system	INHIBITION [%]
COc1ccc(C[C@H]2CN(C(=O)C3CC3)CC[C@H]2OC)cc1	Plasmodium berghei	11.2
CO[C@@H]1CCN(Cc2ccoc2)[C@H]1Cc1ccccc1	Plasmodium berghei	29.5
COCCCNC1N=C(n2nc(C)cc2C)Nc2sc3c(c21)CCCC3 (stereo not drawn)	Plasmodium berghei	88.8
COc1ccc(C[C@H]2CN(Cc3ccoc3)CC[C@H]2OC)cc1	Plasmodium berghei	63.3
Cc1ccnc(OC[C@]23COC[C@H]2CN(C(=O)c2cnccn2)C3)n1	Plasmodium berghei	32.2

Test item "COc1ccc(C[C@H]2CN(C(=O)c3cnoc3)CC[C@@H]2OC)cc1" ; Plasmodium berghei; reported INHIBITION was -50.4

Test item "COc1ccc(CN2C[C@@H]3CN(Cc4ccoc4)C[C@@H]3C2=O)cc1" ; Plasmodium berghei; reported INHIBITION was -4.82

Test item "Cc1cc(CN(C)C(=O)NC2CCN(c3ncccn3)CC2)no1" ; Plasmodium berghei; reported INHIBITION was 27.1
